Reported GI50 values follow for various compounds
# Test system: HT-29
# procedure summary: NCI tumour cell line growth inhibition, 48 h
Activity calls are given as the source filed them. Cut-off read from the data, not from the text of the source: active = GI50 up to about 1.1 µM and inactive = higher.
assay endpoint: GI50

{"columns": ["compound", "assay endpoint", "result"],
 "data": [
  ["COC(=O)/C=C/CCC#Cc1ccccc1C#CCC/C=C/C(=O)OC", "GI50", "3.49 µM (inactive)"],
  ["C[C@@H](CC(O)C(O)C(C)(C)O)C1CCC23CC12CCC1[C@@]2(C)CCC(=O)C(C)(C)C2CC(OC2OC(CO)C(O)C(O)C2O)[C@]13C (stereo partly drawn)", "GI50", "> 10 µM (inactive)"],
  ["O=[N+]([O-])c1ccc(CSC2=C(c3ccc(Cl)cc3)S/C(=C3\\SC(SCc4ccc([N+](=O)[O-])cc4)=C(c4ccc(Cl)cc4)S3)S2)cc1", "GI50", "> 100 µM (inactive)"],
  ["Fc1cc2nc3n(c2cc1F)C(c1c(F)cccc1F)SC3 (stereo not drawn)", "GI50", "34.8 µM (inactive)"],
  ["O=C(CCl)NNC1=Nc2ccc(Cl)cc2SC1", "GI50", "1.85 µM (inactive)"],
  ["N#C/C(=C\\c1ccncc1)c1csc2ccccc12", "GI50", "18.6 µM (inactive)"],
  ["CCOC(=O)C(CCN1CCC2(CC1)C(=O)N(C)CN2c1ccccc1)C(=O)OCC", "GI50", "> 100 µM (inactive)"],
  ["CCc1nc(N)nc(N)c1-c1ccc(NC)c([N+](=O)[O-])c1", "GI50", "0.44 µM (active)"],
  ["CC(=O)NC1=C(C)C(=O)c2c(nc3n2CCC3O)C1=N (stereo not drawn)", "GI50", "17.6 µM (inactive)"],
  ["Cc1ccc(S(=O)(=O)N2CCCCC2CCO)cc1 (stereo not drawn)", "GI50", "> 100 µM (inactive)"],
  ["COC(=O)/C(=N/NC(N)=O)C(C(=O)OC)C(=O)C(=O)Nc1ccc(Cl)cc1 (stereo not drawn)", "GI50", "> 100 µM (inactive)"],
  ["O=C1NC(Cc2c[nH]c3ccccc23)C(=O)N2C(C3CCCCC3)c3[nH]c4ccccc4c3C[C@@H]12 (stereo partly drawn)", "GI50", "14.9 µM (inactive)"],
  ["O=c1ccc2nc3ccc(O)cc3oc-2c1", "GI50", "24 µM (inactive)"],
  ["O=C(O)CCCNS(=O)(=O)c1ccccc1", "GI50", "> 100 µM (inactive)"],
  ["COc1ccc(/C=N/NC(=O)C2=C(N)N(c3ccccc3)C(=C(C#N)C#N)S2)cc1", "GI50", "> 100 µM (inactive)"],
  ["Cc1ccc(C(=O)C(Cl)C(Cl)c2ccc(C)cc2)cc1 (stereo not drawn)", "GI50", "2.12 µM (inactive)"],
  ["O=C(CCCNc1nc(-c2ccccc2)cs1)c1cccs1", "GI50", "> 100 µM (inactive)"],
  ["CCCCCn1cc2c3c(cccc31)C1C=C(C)CN(C)[C@@H]1C2.Cc1ccc(C(=O)OC(C(=O)O)C(OC(=O)c2ccc(C)cc2)C(=O)O)cc1 (stereo not drawn)", "GI50", "3.4 µM (inactive)"],
  ["C[C@H]1CC[C@@]2(NC1)O[C@H]1C[C@H]3[C@@H]4CC[C@H]5C[C@@H](O)CC[C@]5(C)[C@H]4CC[C@]3(C)[C@H]1[C@@H]2C", "GI50", "47.9 µM (inactive)"],
  ["CC1=C(c2ccccc2)CON(c2ccccc2)C1", "GI50", "36.9 µM (inactive)"],
  ["CS(=O)(=O)N1CC(CCl)c2ccc([N+](=O)[O-])cc21 (stereo not drawn)", "GI50", "> 100 µM (inactive)"],
  ["C1=C(c2ccccc2)NC2=N[C@H]3CCCC[C@@H]3N2C1c1ccccc1 (stereo partly drawn)", "GI50", "3.51 µM (inactive)"],
  ["COC(=O)c1cc(C#Cc2cc(OC)ccc2OC)ccc1OC", "GI50", "38.5 µM (inactive)"]
]}

====

# System: SK-OV-3
# procedure summary: NCI tumour cell line growth inhibition, 48 h
The source made the active and inactive calls. Rule as the data show it: active = GI50 up to about 1.1 µM and inactive = higher.
# reported GI50; entries follow
assay endpoint: GI50

{"columns": ["structure smiles string", "result"],
 "data": [
  ["O=C(Cc1ccccc1)NNc1nc(NNC(=O)c2ccncc2)nc(Nc2cccc(Cl)c2)n1", "> 10 µM (inactive)"],
  ["Cc1ccc(-c2cc(N)n(-c3nc4c(c(=O)n(C)c(=O)n4C)n3C)n2)cc1", "41 µM (inactive)"],
  ["COc1ccc2c(c1)c1c3c(ccc4ncn2c43)N(CCN(C)C)CCN=1", "0.908 µM (active)"],
  ["COc1ccc(/C=N/NC(=O)C2=C(N)N(c3ccccc3)C(=C(C#N)C#N)S2)cc1", "57 µM (inactive)"],
  ["O=C(O)c1ccccc1/C=N\\N=C1NCCN1", "> 100 µM (inactive)"]
]}

====

# Test system: HOP-92
# procedure summary: NCI tumour cell line growth inhibition, 48 h
Active and inactive are the calls of the source. No stated cut-off is given here; in the data, active = GI50 up to about 1.1 µM and inactive = higher.
Possible outcomes: 1 (yes) = active, 0 (no) = inactive

{"columns": ["compound", "group"],
 "data": [
  ["COc1ccc(CC(=O)N2CCC3(C)CC(=O)CC=C23)cc1OC (stereo not given)", "0 (no)"],
  ["COC1=C2C[C@@H](C)C[C@@H](OC)[C@@H](O)[C@H](C)/C=C(\\C)[C@@H](OC(N)=O)[C@H](OC)/C=C\\C=C(/C)C(=O)NC(=CC1=O)C2=O", "1 (yes)"],
  ["O=c1[nH]c(=O)n(C2OC3COC2C3O)cc1F (stereo not given)", "0 (no)"],
  ["Fc1cc2nc3n(c2cc1F)C(c1c(F)cccc1F)SC3 (stereo not given)", "0 (no)"],
  ["c1ccc(SC(CCCCOC2CCCCO2)Sc2ccccc2)cc1 (stereo not given)", "0 (no)"],
  ["CC(=O)c1cc2c(s1)C(=O)c1ccccc1C2=O", "0 (no)"],
  ["Cc1c2cc[n+](COC(=O)c3ccccc3)cc2c(C)c2c1[nH]c1ccccc12", "1 (yes)"],
  ["COc1cc(C(C[N+](=O)[O-])SC(C)=O)ccc1OCc1ccccc1 (stereo not given)", "0 (no)"],
  ["Cc1cc(C)c(NC(=S)NC(=O)c2ccccc2)cc1C", "0 (no)"],
  ["CC(C)NC(=O)OCc1c(COC(=O)NC(C)C)c(-c2ccc[n+](COC(=O)C(C)(C)C)c2)n2c1CCC2", "0 (no)"]
]}

====

# System: SF-295
# procedure summary: NCI tumour cell line growth inhibition, 48 h
Active and inactive are the calls of the source. Rule as the data show it: active = GI50 up to about 1.1 µM and inactive = higher.
assay endpoint: GI50

{"columns": ["compound", "result"],
 "data": [
  ["CC(C)(C)NC(NC(C)(C)C)=C(/C=C(/Cl)[N+](=O)[O-])[N+](=O)[O-]", "> 100 µM (inactive)"],
  ["COc1ccc(C2C3=C(Nc4ncnn42)c2ccccc2OC3c2ccccc2)cc1 (stereo not given)", "27.8 µM (inactive)"],
  ["O=C(CCCCCCCCCCc1ccccc1)C1=C(O)CC(O)CC1=O (stereo not given)", "56.8 µM (inactive)"],
  ["COC(=O)C1=C(C(=O)OC)C(C(=O)c2ccccc2)N2N=C(c3ccc(Cl)cc3)C=CC12 (stereo not given)", "44.7 µM (inactive)"],
  ["C=C(C=O)CCCC(C)[C@@H]1CCC23CC12CCC1[C@@]2(C)CCC(OC(C)=O)C(C)(C)C2CC(OC2OC(COC(C)=O)C(O)C(O)C2O)[C@]13C (stereo not given in full)", "5.83 µM (inactive)"]
]}

====

# System: EKVX
# procedure summary: NCI tumour cell line growth inhibition, 48 h
The source made the active and inactive calls. No stated cut-off is given here; in the data, active = GI50 up to about 1.1 µM and inactive = higher.
Possible outcomes: active, inactive

{"columns": ["compound", "assay target", "group"],
 "data": [
  ["COc1cc(/C=C/c2csnn2)cc(OC)c1OC", "EKVX", "inactive"],
  ["O=C1c2cc(Cc3ccccc3)c(=O)c(Cc3ccccc3)cc2C(=O)c2cc(Cc3ccccc3)c(=O)c(Cc3ccccc3)cc21", "EKVX", "inactive"],
  ["COc1ccc2[nH]c3c(c2c1)CC(=S)N1CCCC(CC3=O)C1 (stereo unspecified)", "EKVX", "inactive"],
  ["CCOC(=O)c1cn2c(n1)sc1cc(OC)ccc12", "EKVX", "inactive"],
  ["O=C1NC(Cc2c[nH]c3ccccc23)C(=O)N2C(C3CCCCC3)c3[nH]c4ccccc4c3C[C@@H]12 (stereo partly specified)", "EKVX", "inactive"],
  ["CC(O)CC(=O)CO[C@H]1[C@H](O)[C@@H](O)[C@@H](O)[C@@H]2NC(=O)c3c(cc4c(c3O)OCO4)[C@H]21 (stereo partly specified)", "EKVX", "active"],
  ["O=C(c1cccnc1)N1N=C(c2ccccc2)CC1(O)c1cc(F)c(Cl)cc1Cl (stereo unspecified)", "EKVX", "inactive"],
  ["C=C(C=O)CCCC(C)[C@@H]1CCC23CC12CCC1[C@@]2(C)CCC(OC(C)=O)C(C)(C)C2CC(OC2OC(COC(C)=O)C(O)C(O)C2O)[C@]13C (stereo partly specified)", "EKVX", "inactive"],
  ["Cc1nc(N)nc(CCC(=O)Nc2cccc(C(F)(F)F)c2)c1-c1ccc(Cl)cc1", "EKVX", "inactive"],
  ["COc1cccc2c1CCc1c(-c3ccc(F)cc3)cc(-c3ccc4ccccc4n3)nc1-2", "EKVX", "inactive"],
  ["CCOC(=O)c1cc(C2CCN(c3ccccc3)C2=O)c(C(=O)/C=C(/C)O)[nH]1 (stereo unspecified)", "EKVX", "inactive"],
  ["COc1ccc(-c2cc(-c3ccccc3)nc(/N=C\\c3ccccc3)n2)c(O)c1", "EKVX", "inactive"],
  ["CN(C)c1ccc2nc(CC(O)(C(F)(F)F)C(F)(F)F)ccc2c1", "EKVX", "inactive"],
  ["O=C(O)/C=C/c1nc2ccccc2c(=O)o1", "EKVX", "inactive"],
  ["O=C(c1ccccc1)C(Nc1ccc2ccccc2c1)c1ccccc1 (stereo unspecified)", "EKVX", "inactive"],
  ["O=C1N/C(=N\\N=C\\c2ccccc2)C(c2ccccc2)O1 (stereo unspecified)", "EKVX", "inactive"],
  ["Cc1ncc([N+](=O)[O-])n1CCNCCCCn1ccnc1[N+](=O)[O-]", "EKVX", "inactive"],
  ["COc1ccc2c(c1)c1c3c(ccc4ncn2c43)N(CCN(C)C)CCN=1", "EKVX", "active"],
  ["CC(=O)NC1=C(C)C(=O)c2c(nc3n2CCC3O)C1=N (stereo unspecified)", "EKVX", "inactive"],
  ["CC(=O)/N=C1\\N/C(=C\\c2ccc(Cl)cc2)C(=O)N1/C=C1\\C(=O)Oc2ccccc2C1=O", "EKVX", "inactive"],
  ["Cc1cc(N)c2ccccc2[n+]1CCCCCCCCCCNc1cc(C)[n+](CCCCCCCCCC[n+]2c(C)cc(N)c3ccccc32)c2ccccc12", "EKVX", "inactive"],
  ["CCO/C([O-])=C(/C=O)[n+]1c(C)n(C)c2ccccc21", "EKVX", "inactive"],
  ["ClC1c2ccccc2C2(c3ccccc3)OOC1(c1ccccc1)O2 (stereo unspecified)", "EKVX", "inactive"],
  ["NC(=O)NC1NC(=O)NC1=O (stereo unspecified)", "EKVX", "inactive"],
  ["O=C1C2[C@@H](C(=O)N1c1ccc(Br)cc1)C13C(=CC2([N+](=O)[O-])[C@@H]2C(=O)N(c4ccc(Br)cc4)C(=O)[C@@H]21)c1ccccc1N3c1ccccc1 (stereo partly specified)", "EKVX", "inactive"],
  ["O=C(ON=C1c2ccccc2C(Br)C(Br)c2ccccc21)c1cc([N+](=O)[O-])cc([N+](=O)[O-])c1 (stereo unspecified)", "EKVX", "inactive"],
  ["CC(C)[C@@H](C)[C@@]1(C)C[C@@H]1[C@@H](C)[C@H]1CC[C@@H]([C@@H]2CC=C3C[C@@H](O)CC[C@]3(C)C2=O)[C@]1(C)CCO", "EKVX", "inactive"],
  ["CCNc1ccc2c(c1)C(=O)N(OS(C)(=O)=O)C2=O", "EKVX", "inactive"],
  ["COC[C@H]1C(=O)NCC(=O)N2N=CCC[C@H]2C(=O)N(O)[C@H](C)C(=O)O[C@@H](C(C)C)[C@H](NC(=O)[C@@](C)(O)[C@]2(O)CC[C@@H](CC(C)C)[C@H](C)O2)C(=O)N2NCCC[C@@H]2C(=O)N1O", "EKVX", "active"],
  ["CC(C)=CCN1CC(C)C(=O)Nc2cc(Cl)ccc21 (stereo unspecified)", "EKVX", "inactive"],
  ["COC(=O)C(/C(=N/NC(N)=O)C(=O)Nc1ccc(C)cc1)c1nc2ccc([N+](=O)[O-])cc2nc1O (stereo unspecified)", "EKVX", "inactive"],
  ["CC(=O)NC1=C(NCC(C)C)C(=O)c2ccccc2C1=O", "EKVX", "inactive"],
  ["CC12CC3OC(=O)C1COC14OC5(C2C1=O)C(O)(CCC1C4CC2OC24CC=CC(=O)C14C)C(=O)OC35C (stereo unspecified)", "EKVX", "inactive"],
  ["OC(c1ccc(-c2ccccc2)cc1)(c1ccc(-c2ccccc2)cc1)c1ccc(-c2ccccc2)cc1", "EKVX", "inactive"],
  ["O=C(O)CCCNS(=O)(=O)c1ccccc1", "EKVX", "inactive"],
  ["N#[N+]c1ccccc1Sc1ccc(Cl)cc1", "EKVX", "inactive"]
]}
